Consider the following sequences and their measured apparent KD of MS2 coat protein readings.
tested on: MS2 coat protein; test: apparent KD of MS2 coat protein; designed switch direction (-1 OFF switch, 1 ON switch): 1; higher = weaker reporter binding; details: Eterna round: R95; input ligand: none
measureName: apparent KD of MS2 coat protein (nM)

AGCAUACAUGAGGAUCACCCAUGUCAACGUAGUCGAGGAUAUGGGCAGCCGUGAGGCGAACCAGAAGGCGAAUUGA [Mat - Same State 1 - Mod of JL - D3] (puzzle: Same State 1)	38.9
AGCUAUCGCGUACGAUAGCUGAAGCAUGUACAUGAGGAUCACCCAUGUCAUGUACAAGCUUUUUGCUCGUCUUAUUG [JL-shm-2.26 JL mod] (puzzle: Sensor for hsa-mir-208a)	347
GAGGAUGAACUACAGGAUAUAUAGCAGAUGACAUGAGGAUCACCCAUGUAAGAGAAAGGAGGGAGAUAGAAGGGUAUGGGAGGUG [JR_SS2_Sub037] (puzzle: Same State 2)	27.1
GGAGAGAGAGCGCAGGAUAUUUAAGGAGAAACAUGAGGAUCACCCAUGUGAGAGAGAGAGGAGAGAGAGAAGGGUGAGAGAGAGG [Altered State 2-16 - Jieux - Same State 2] (puzzle: Same State 2)	36.2
AACAAUCUAUCUGAGGAUAUCAUGAAAUAAACAUGAGGAUCACCCAUGUGCAGGAAAACUGCAUAUGAGAAGGCAGAUAGAUUUA [salish99_ss2_r3_057] (puzzle: Same State 2)	1000
AGUCCAGCGAAAGCUGGACAAAGACAUGUACAUGAGGAUCACCCAUGUCAUGUACAAGUUUUUUGCUCGUCUUAUAA (puzzle: Sensor for hsa-mir-208a)	35.8
AGAGAGGAAGCUGAGGAUAUCGUAAGGAGGACAUGAGGAUCACCCAUGUGUGUGGAAUUGGAGGACGAGAAGGCAGAGGAGUGGG [JR_SS2_Sub055] (puzzle: Same State 2)	34.6
AUAAGUUCGAUGCUCGUCUCUCCGUACAAACAUGAGGAUCACCCAUGUGAUUAGGCAGUAGCCCAAUCAGUAUGGCC [Ariusveri] (puzzle: Sensor for hsa-mir-208a)	43.4
UAGAGAGGAAGCGAGGAUAUCGUGUUAGGUACAUGAGGAUCACCCAUGUUUUAAGUAGAGAUAGGCGAGAAGGCGCAGGAGAAAA [JR_SS2_Sub088] (puzzle: Same State 2)	30.2
UUGAAGACGGACAAGGAUAUGUCAAAGGAAACAUGAGGAUCACCCAUGUGGAGAUUGGAGAAGAAACAGAAGGUGUACGGAGAGA [JR_SS2_Sub008] (puzzle: Same State 2)	21.4
CAGCGCUGUCGAGAGGAUAUGCGGUGAUGGACAUGAGGAUCACCCAUGUUAGCGACAGCAUUACGGUAGAAGGCUUCACAGCUGC [Soteed Omei mod 15] (puzzle: Same State 2)	41.8
UACAAUCUAUCUGAGGAUAUCAUGAAUAUAACAUGAGGAUCACCCAUGUGCAGGAAAACUGCAUAUGAGAAGGCAGAUAGAUUGU [salish99_ss2_r3_068] (puzzle: Same State 2)	109

---

system: K4 kissing-loop RNA reporter; test: apparent KD of K4 kissing-loop reporter; higher = weaker reporter binding; settings: Eterna round: R107; input ligand: tryptophan 2.4 mM;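 note: bound reporter read as fluorescence of individual clusters on recovered sequencing chips by microscopy, with normalized cluster intensities fitted with a binding model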
measureName: apparent KD of K4 kissing-loop reporter (nM)

AAUAAAAUCACGGCCGCCACUGAUGCUAAUAUUGGCAGUGAUGUUGCUAUGUAUAUUUUAUUUGACAGGACCGGGUGAAUAUUUA [#24 K4 Tryptophan B Exclusion]	137
CUGUACAUCUCGGCCGCCACUGACCUAAGUGAUGUUAGGAAUGAAACCUAGUGAUGUUAGCAAACCAGGACCGGGAGGUGUGCAG [KL-SSTryp-B4 #Double Kiss]	51.8
AAAAUAAUCCAGUGAUGUUGGUAUACAGAUACCAGCGACGAAAGUCGCCCUUGGCAGCUGUGGACGUACAAAAUAAGUACGUCCU	813
UCCGAGCUUAUUGAUACCAGUUCGGCGAGCUACUAGAGUGAUGUUCUUGUAAGCGUACACAACCCUUGGCAGCAAUAGAGGAGGU [theeternabot_sameState_KL_Theo_B_37]	135
CUCAAACCGUGGGCAUUUCGCAAAGUAGAUACCAGUCGCAACGGUGACCCUUGGCAGCUAGUAAAGUGAUGUUUUAUCGGCACCA [theeternabot_exclusion_KL_Theo_A_35]	69.1
UGAUACCAGACGGCCGCCACUAGACCAGUCAAAGACUGGAUGUGAUGUUUGAGGAGUGAUGUUCCUAGGACCGGGUCUGGUAUCU [TrypBX 4 #Palindromic #SwitchBubble #StaticStem]	28.2
UUAGAUGAUUCAUCAAGAUUGAUGAGGAAACGAGGACCGGUACGGCCGCCACUCGAGUGAUGUUCGAGAACCUCAUCAAUCAAUU [AK4.4 Exc Tryptophan A]	333
GGAUAGGACAGAGGAUAUGGUAGUGAUGUUACCAAACUGGUUACUUUUGUCAGAAAACUGGCAUUUCCAGAAGGCUGUCCUAUCG [KL-XFMN-B12]	68.3
ACUAUCCGUAUAUAUAAGAUAGCUGGAGAUACCAGUUCAAUCUUGAACCCUUGGCAGCUCACCACCAAGUGAUGUUUGGCACGAC [theeternabot_sameState_KL_Theo_A_42]	273
